Test system: P. aeruginosa PAOΔmexR
Assay: MIC, CLSI broth microdilution in BD Phoenix AST Broth
Type: cell-based, Pseudomonas aeruginosa
Conditions: Pseudomonas aeruginosa
Endpoint Label: MIC (µg/mL)
Numbers only; they are read as µg/mL.

The compound C[C@H]1COc2c(N3CCN(C)CC3)c(F)cc3c(=O)c(C(=O)O)cn1c23 [Levofloxacin, levofloxacin] showed MIC equal to 0.5

Lab book: MIC of C[C@@H](O)[C@H]1C(=O)N2C(C(=O)O)=C(S[C@@H]3CN[C@H](C(=O)N(C)C)C3)[C@H](C)[C@H]12 [Meropenem, meropenem] noted as 1

Looking up CCN[C@@H]1C[C@H](N)[C@@H](O[C@H]2OC(CN)=CC[C@H]2N)[C@H](O)[C@H]1O[C@H]1OC[C@](C)(O)[C@H](NC)[C@H]1O [Netilmicin, netilmicin] , I found its MIC recorded as 8

Summary for this compound, C[C@@H](O)[C@H]1C(=O)N2C(C(=O)O)=C(SCCN=CN)C[C@H]12 [Imipenem, imipenem] : MIC is 0.5

Data point: CC(C)(O/N=C(\C(=O)N[C@@H]1C(=O)N2C(C(=O)[O-])=C(C[n+]3ccccc3)CS[C@H]12)c1csc(N)n1)C(=O)O [Ceftazidime, ceftazidime] ; MIC = 4

For reference, reported MIC for CN(C)c1ccc(O)c2c1C[C@H]1C[C@H]3[C@H](N(C)C)C(O)=C(C(N)=O)C(=O)[C@@]3(O)C(O)=C1C2=O [Minocycline, minocycline] stands at 8

Entry under test: C[C@H]1[C@H](NC(=O)/C(=N\OC(C)(C)C(=O)O)c2csc(N)n2)C(=O)N1S(=O)(=O)O [Aztreonam, aztreonam] . Its MIC was 4

Lab note: measured MIC of C[C@H]1c2cccc(O)c2C(=O)C2=C(O)[C@]3(O)C(=O)C(C(N)=O)=C(O)[C@@H](N(C)C)[C@@H]3[C@@H](O)[C@@H]21 [Doxycycline, doxycycline] was 64

Please fill in: MIC reported for CCn1cc(C(=O)O)c(=O)c2cc(F)c(N3CCNCC3)cc21 [Norfloxacin, norfloxacin] = 1

Form: compound = CN(C)[C@@H]1C(O)=C(C(N)=O)C(=O)[C@@]2(O)C(O)=C3C(=O)c4c(O)cccc4[C@@](C)(O)[C@H]3C[C@@H]12 [Tetracycline, tetracycline] ; MIC = 16

Notebook: O=C(N[C@H](CO)[C@H](O)c1ccc([N+](=O)[O-])cc1)C(Cl)Cl [Chloramphenicol, chloramphenicol] , MIC read as 32

###

Kindly state Potentiation (fold) for each of the entries shown.
Test system: P. aeruginosa 125A
Assay: MIC, CLSI broth microdilution in BD Phoenix AST Broth
Format: cell-based, Pseudomonas aeruginosa
Details: strain 125A; antibiotic MIC alone vs with RW01 100 mg/L
Write down the numeric answer in fold and omit the unit.

// field: Potentiation (fold); key: CN(C)c1cc(NC(=O)CNC(C)(C)C)c(O)c2c1C[C@H]1C[C@H]3[C@H](N(C)C)C(O)=C(C(N)=O)C(=O)[C@@]3(O)C(O)=C1C2=O [Tigecycline, tigecycline] ; value = 8

// C[C@H]1c2cccc(O)c2C(=O)C2=C(O)[C@]3(O)C(=O)C(C(N)=O)=C(O)[C@@H](N(C)C)[C@@H]3[C@@H](O)[C@@H]21 [Doxycycline, doxycycline] : Potentiation (fold) value = 8

Form: compound = CN(C)c1ccc(O)c2c1C[C@H]1C[C@H]3[C@H](N(C)C)C(O)=C(C(N)=O)C(=O)[C@@]3(O)C(O)=C1C2=O [Minocycline, minocycline] ; Potentiation (fold) = 8
